Values compiled from patent US11472803B2.

For each of the compounds below, state its Emax.
- TARGET ENTITY: human M2 receptor (Homo sapiens, UniProt P08172)
- Construct: expressed in transfected cells; host or cells: CHO-DUKX (CHO-DUKX-M2-GIRK)
- Sequence (P08172 whole entry): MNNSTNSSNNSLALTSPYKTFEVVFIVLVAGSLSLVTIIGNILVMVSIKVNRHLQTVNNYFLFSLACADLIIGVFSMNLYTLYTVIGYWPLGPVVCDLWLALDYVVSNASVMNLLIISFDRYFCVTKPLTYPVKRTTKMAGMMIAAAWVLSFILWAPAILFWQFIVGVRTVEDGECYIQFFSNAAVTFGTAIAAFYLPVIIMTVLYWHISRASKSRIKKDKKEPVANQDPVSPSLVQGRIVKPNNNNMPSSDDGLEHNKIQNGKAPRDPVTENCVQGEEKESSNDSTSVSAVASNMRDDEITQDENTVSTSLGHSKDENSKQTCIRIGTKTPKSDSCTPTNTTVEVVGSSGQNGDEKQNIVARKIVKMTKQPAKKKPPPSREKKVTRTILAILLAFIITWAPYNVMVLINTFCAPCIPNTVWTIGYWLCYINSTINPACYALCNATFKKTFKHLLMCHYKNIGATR
- EXPERIMENT NOTES: Functional M2-GIRK1/4 activation test: allosteric potency (EC50) and efficiency at EC20 acetylcholine
- Type: cell-based
- CONDITION LABEL: boosting of the acetylcholine effect at EC20 acetylcholine concentration; CHO-DUKX-M2-GIRK cells
The reply should be a number in %, with the unit left off.

[Q] Recorded Emax for CC(C)(CC(F)(F)F)NC(=O)c1cn(-c2c(F)cccc2F)c2nc(N3C[C@@H](O)[C@H](O)C3)c(F)cc2c1=O , please?
[A] 92

[Q] Recorded Emax for CC(C)[C@@H](C)NC(=O)c1cn(-c2c(F)cc(F)cc2F)c2nc(N3CC[C@H](O)C3)c(F)cc2c1=O , please?
[A] 96

[Q] Recorded Emax for O=C(NC12CC(C1)C2)c1cn(-c2c(F)cc(F)cc2F)c2nc(N3C[C@@H](O)[C@H](O)C3)c(F)cc2c1=O , please?
[A] 90

[Q] Recorded Emax for O=C(NC12CC(C1)C2)c1cn(-c2c(F)cccc2F)c2nc(N3C[C@@H](O)[C@H](O)C3)c(F)cc2c1=O , please?
[A] 99

[Q] Recorded Emax for CC[C@H](NC(=O)c1cn(-c2c(F)cc(F)cc2Cl)c2nc(N3C[C@@H](O)[C@H](O)C3)c(F)cc2c1=O)C(F)(F)F (single isomer, unassigned) [Example 47] , please?
[A] 81

[Q] Recorded Emax for O=C(NC(C1CC1)(C1CC1)C(F)(F)C(F)(F)F)c1cn(-c2c(F)cc(F)cc2F)c2nc(N3CC(CO)(CO)C3)c(F)cc2c1=O , please?
[A] 100

[Q] Recorded Emax for CC(C)(C)OC(=O)N1CCC(NC(=O)c2cn(-c3c(F)cc(F)cc3F)c3nc(N4C[C@@H](O)[C@H](O)C4)c(F)cc3c2=O)C(F)(F)C1 (stereo partly shown) , please?
[A] 100

[Q] Recorded Emax for CC(NC(=O)c1cn(-c2c(F)cc(F)cc2F)c2nc(N3CCCC(O)(CO)C3)c(F)cc2c1=O)C(F)(F)C(F)(F)F (stereo not shown) , please?
[A] 100

[Q] Recorded Emax for O=C(N[C@@H](C1CC1)C(F)(F)F)c1cn(-c2c(F)cc(F)cc2F)c2nc(N3C[C@@H](O)[C@@H](O)C3)c(F)cc2c1=O , please?
[A] 100

[Q] Recorded Emax for O=C(N[C@@H](C1CC1)C(F)(F)F)c1cn(-c2c(F)cc(F)cc2Cl)c2nc(N3C[C@@H](O)[C@H](O)C3)c(F)cc2c1=O [Example 42] , please?
[A] 100

[Q] Recorded Emax for C[C@H](NC(=O)c1cn(-c2c(F)cc(F)cc2F)c2nc(N3C[C@@H](O)[C@H](O)C3)c(F)cc2c1=O)c1ccccc1 , please?
[A] 95

[Q] Recorded Emax for CC(NC(=O)c1cn(-c2c(F)cc(F)cc2F)c2nc(N3CCCC[C@@H]3CO)c(F)cc2c1=O)C(F)(F)C(F)(F)F (single isomer, unassigned) , please?
[A] 83

[Q] Recorded Emax for O=C(NC(C(F)(F)F)C(F)(F)F)c1cn(-c2c(F)cc(F)cc2F)c2nc(N3C[C@@H](O)[C@H](O)C3)c(F)cc2c1=O , please?
[A] 98
